Where these numbers come from: ChEMBL document CHEMBL1122227

# TARGET SYSTEM: Muscarinic acetylcholine receptor (Rattus norvegicus) (UniProt P08482+P08483+P08485+P08911+P10980)
# ASSAY OVERVIEW: Percentage inhibition of field stimulated contraction guinea pig ileum (parasympatholytic activity)in presence of test compound (4 mg/L)
# Format: functional, tissue-based
# MEASUREMENT PARAMETERS: Cavia porcellus, target entry is the homologue from another species
TEST READOUT: inhibition (%)

Below, each entry is followed by its recorded inhibition result.
1. Oc1c(CN2CCCC2)cc(Nc2ncccn2)cc1CN1CCCC1; 6
2. Oc1c(CN2CCCC2)cc(Nc2ccnc3ccccc23)cc1CN1CCCC1; 19
3. Oc1ccccc1Nc1ncnc2ccccc12; 48
4. Oc1c(CN2CCCC2)cc(Nc2nncc3ccccc23)cc1CN1CCCC1; 83
5. Oc1c(CN2CCCC2)cc(Nc2nccc3ccccc23)cc1CN1CCCC1; 48

(I) Oc1c(CN2CCCC2)cc(Nc2ncnc3ccccc23)cc1CN1CCCC1
(II) Oc1c(CN2CCCC2)cc(Nc2nnc(Cl)c3ccccc23)cc1CN1CCCC1
(III) Oc1ccc(Nc2nncc3ccccc23)cc1
(IV) COc1cc2c(Nc3cc(CN4CCCC4)c(O)c(CN4CCCC4)c3)ncnc2c(OC)c1OC
Q: Arrange the 4 entries by inhibition so the values rise. The response must list the labels following the requested ordering.
A: IV, III, I, II

(P) Oc1ccc(Nc2nnc(Cl)c3ccccc23)cc1CN1CCCC1
(Q) Clc1nnc(Nc2cc(CN3CCCC3)cc(CN3CCCC3)c2)c2ccccc12
Q: Lab note: check whether P or Q shows the higher recorded inhibition. # answer = label of selected item
A: Q
